ASSAY METHOD TEXT: Intrinsic clearance in human liver microsomes
Type: ADME, Microsome
TEST SETTINGS: read-out: CLH
QUANTITY: microsomal CLint (µL/min/mg)
Respond with the bare value in µL/min/mg.

Cc1cc(=O)c2c(F)cncc2n1-c1c(Cl)cc(C#N)cc1Cl	12

QUERY: Which microsomal CLint value is on record for `CSc1c(C#N)c(=O)c2ccc(F)cc2n1-c1c(Cl)cccc1Cl` ?
RESULT: 77

* * *

The entries below come with measured microsomal CLint values attached.
ASSAY METHOD TEXT: Intrinsic clearance in rat liver microsomes
Type: ADME, Microsome
TEST SETTINGS: read-out: CLH
Respond with the bare value in µL/min/mg.

CSc1c(C#N)c(=O)c2ccc(F)cc2n1-c1c(Cl)cccc1Cl	236

Next, consider the following molecule.
QUERY: Which microsomal CLint value is on record for `Cc1cc(=O)c2c(F)cncc2n1-c1c(Cl)cc(C#N)cc1Cl` ?
RESULT: 18

* * *

The entries below come with measured Papp A→B values attached.
ASSAY METHOD TEXT: Apparent permeability across apical to basolateral side in MDCK cells
Format: ADME, cell-based, Canis lupus familiaris
TEST SETTINGS: dog
Enter the number, and then the unit.

Examples from the recorded data:
Cc1cc(=O)c2c(F)cncc2n1-c1c(Cl)cc(C#CCN2CCOCC2)cc1Cl	20.4 ×10⁻⁶ cm/s
Cc1cc(=O)c2c(F)cncc2n1-c1c(Cl)cc(OCC(O)CO)cc1Cl (stereo not given)	31 ×10⁻⁶ cm/s
Cc1cc(=O)c2c(OCC(O)COCC(O)CO)ncc(Cl)c2n1-c1c(Cl)cccc1Cl (stereo not given)	7.5 ×10⁻⁶ cm/s
O=c1cc(CO)n(-c2c(Cl)cccc2Cl)c2c(Cl)cnc(OC[C@H](O)CO)c12	8.7 ×10⁻⁶ cm/s

Next, consider the following molecule.
QUERY: Which Papp A→B value is on record for `COc1cc(Cl)c(-n2c(C)cc(=O)c3c(F)cncc32)c(Cl)c1` ?
RESULT: 39.1 ×10⁻⁶ cm/s

* * *

ASSAY METHOD TEXT: Clearance in iv dosed rat
Assay type: ADME, organism-based
TEST SETTINGS: in vivo
QUANTITY: clearance (mL/min/kg)
Respond with the bare value in mL/min/kg.

QUERY: Which clearance value is on record for `O=c1cc(CO)n(-c2c(Cl)cccc2Cl)c2c(Cl)cnc(OC[C@H](O)CO)c12` ?
RESULT: 35

* * *

TARGET DESC: Kir3.1/Kir3.2 (Homo sapiens, UniProt P48051+P48549)
Sequence (P48549 whole entry): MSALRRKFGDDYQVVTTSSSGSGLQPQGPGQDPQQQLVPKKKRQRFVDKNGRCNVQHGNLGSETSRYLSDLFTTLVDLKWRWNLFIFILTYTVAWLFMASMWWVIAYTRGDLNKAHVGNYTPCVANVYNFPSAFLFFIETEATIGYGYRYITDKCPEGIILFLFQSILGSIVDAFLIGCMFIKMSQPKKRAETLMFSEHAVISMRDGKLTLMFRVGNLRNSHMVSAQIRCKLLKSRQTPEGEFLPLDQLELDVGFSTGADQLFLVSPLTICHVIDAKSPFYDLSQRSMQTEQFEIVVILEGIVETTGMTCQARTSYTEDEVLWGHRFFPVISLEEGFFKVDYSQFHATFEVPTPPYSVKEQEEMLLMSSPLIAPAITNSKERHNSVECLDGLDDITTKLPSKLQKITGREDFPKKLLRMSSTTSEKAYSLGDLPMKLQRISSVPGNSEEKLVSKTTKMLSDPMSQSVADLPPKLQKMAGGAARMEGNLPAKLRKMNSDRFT
Sequence (P48051 whole entry): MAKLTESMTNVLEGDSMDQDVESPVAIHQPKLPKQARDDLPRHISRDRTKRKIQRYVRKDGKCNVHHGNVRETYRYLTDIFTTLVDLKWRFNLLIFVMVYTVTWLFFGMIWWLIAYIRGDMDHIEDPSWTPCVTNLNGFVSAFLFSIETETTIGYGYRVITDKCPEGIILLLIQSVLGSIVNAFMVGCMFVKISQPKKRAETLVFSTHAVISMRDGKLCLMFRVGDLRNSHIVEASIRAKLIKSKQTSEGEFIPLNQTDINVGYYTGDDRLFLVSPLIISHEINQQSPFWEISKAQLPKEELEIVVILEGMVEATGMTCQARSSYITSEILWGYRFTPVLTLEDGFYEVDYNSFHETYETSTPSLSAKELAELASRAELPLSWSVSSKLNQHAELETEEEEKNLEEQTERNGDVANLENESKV
ASSAY METHOD TEXT: Inhibition of recombinant human GIRK1/2 channel
Format: protein-complex assay
QUANTITY: pIC50
Just the number, please; pIC50 means minus log10 of the concentration in mol/L.

QUERY: Recorded pIC50 for `Cc1cc(=O)c2c(F)cncc2n1-c1c(Cl)cc(C#N)cc1Cl` with Kir3.1/Kir3.2 (Homo sapiens, UniProt P48051+P48549), please?
RESULT: 6.70

* * *

ASSAY METHOD TEXT: Cmax in rat administered as repeated dose for 6 days
Format: ADME
Parameters: time 6 day
TEST SETTINGS: in vivo
QUANTITY: Cmax (µM)
Respond with the bare value in µM.

QUERY: Which Cmax value is on record for `O=c1cc(CO)n(-c2c(Cl)cccc2Cl)c2c(Cl)cnc(OC[C@H](O)CO)c12` ?
RESULT: 193
